# ASSAY_INFO: qHTS RealTime-Glo MT Cell Viability Assay in HepG2 cells - 0 hour (AID 1224889); also: nearly all actives have a fitted effect of over 50% in size
# MEASUREMENT_CONTEXT: RealTime-Glo luminescence; series mostly up to 76.8 µM
Records with an inconclusive call do not appear. Calls of active or inactive are those of the source. Calls follow the shape of the dose curve; as a rule, active = well fitted cell-killing curve with a large enough effect in the repeat runs; inconclusive = weak or mixed curves, or effect the other way; inactive = flat fitted curve, though single readings scatter.

COMPOUND	outcome
O=S(=O)(c1ccc(O)cc1)c1ccc(O)cc1	inactive
CC(C)NC(=O)N1CC(=O)N(c2cc(Cl)cc(Cl)c2)C1=O	inactive
c1ccc2c(c1)oc1ccccc12	inactive
CN(N=O)c1ccccc1	inactive
CC(C)(C)C(O)(CCc1ccc(Cl)cc1)Cn1cncn1 (stereo unspecified)	inactive
C#CC(C)(C)NC(=O)c1cc(Cl)cc(Cl)c1	inactive

----------
# SYSTEM_UNDER_TEST: Thyrotropin-releasing hormone receptor (Homo sapiens)
# ASSAY_INFO: qHTS assay to identify small molecule antagonists of the thyrotropin-releasing hormone receptor (TRHR) signaling pathway (AID 1346877)
# MEASUREMENT_CONTEXT: TRHR-HEK293, TRH-induced calcium fluorescence, antagonist mode; series mostly up to 51.3 µM
# Procedure: National Center for Advancing Translational Sciences [NCATS] NIH Chemical Genomics Center [NCGC] U.S. Environmental Protection Agency [EPA] National Institutes of Environmental Health Sciences [NIEHS] National Toxicology Program [NTP] […] The TRHR-Hek293 cells were dispensed at 1500cells/4uL/well in 1536-well black-clear bottom plates using a Multidrop dispenser. […] The fluorescence intensity in the plates was measured using FDSS 7000EX kinetic plate reader for 3 min at 1 sec intervals. […]
Calls of active or inactive are those of the source. Calls follow the shape of the dose curve; as a rule, active = well fitted inhibition curve with a large enough effect in the repeat runs (not every such curve was filed as active); inconclusive = weak or mixed curves; inactive = flat fitted curve, though single readings scatter.
PROPERTY_MEASURED: outcome

MOLECULAR_STRING	SYSTEM_UNDER_TEST	PROPERTY_MEASURED	RESULT
Clc1ccccc1Cl	Thyrotropin-releasing hormone receptor (Homo sapiens)	outcome	inactive
CN(C)N=O	Thyrotropin-releasing hormone receptor (Homo sapiens)	outcome	inactive
CCCN(CCC)c1c([N+](=O)[O-])cc(C(F)(F)F)cc1[N+](=O)[O-]	Thyrotropin-releasing hormone receptor (Homo sapiens)	outcome	inactive

----------
# ASSAY_INFO: qHTS assay to identify small molecule agonists of the AP-1 signaling pathway (AID 1159526)
# MEASUREMENT_CONTEXT: ME-180 (cervical carcinoma) AP-1-bla reporter, beta-lactamase FRET ratio, 5 h; series mostly up to 76.8 µM
Inconclusive results are not listed. Active and inactive are the calls of the source. Calls follow the shape of the full dose curve.
Classes used: active, inactive

COMPOUND	CAT
Nc1c(Cl)c(Cl)nc(C(=O)O)c1Cl	inactive
Cc1ccccc1O	inactive
Cc1[nH]c(=O)n(C(C)(C)C)c(=O)c1Cl	inactive
O=S(=O)(c1ccc(O)cc1)c1ccc(O)cc1	inactive
CC(Br)C(=O)O (configuration not stated)	inactive
Clc1cccc(Cl)c1Cl	inactive
CCCCCCCCCCCC#N	inactive
CC(C)N1C(=O)c2ccccc2NS1(=O)=O	inactive
O=Cc1cccc(Oc2ccccc2)c1	inactive
CCc1cccc(C)c1N(C(=O)CCl)C(C)COC (configuration not stated)	inactive
COC(=O)NC(=S)Nc1ccccc1NC(=S)NC(=O)OC	inactive
CN(C)[C@@H]1C(=O)C(C(N)=O)=C(O)[C@@]2(O)C(=O)C3=C(O)c4c(O)cccc4[C@@](C)(O)[C@H]3C[C@@H]12	inactive
O=c1[nH]c(=O)[nH]c(=O)[nH]1	inactive
C=CC(N)=O	inactive
c1cc2c3c(cccc3c1)CC2	inactive
CN=C=S	inactive
CC(C)=C[C@@H]1[C@@H](C(=O)OCc2coc(Cc3ccccc3)c2)C1(C)C	inactive
C#CCN(C)[C@H](C)Cc1ccccc1	inactive
CC(NC(C)(C)C)C(=O)c1cccc(Cl)c1 (configuration not stated)	active
CCC(C)(CC)c1cc(NC(=O)c2c(OC)cccc2OC)on1	inactive
CC(C)(C)C(O)(CCc1ccc(Cl)cc1)Cn1cncn1 (configuration not stated)	inactive
Nc1ccccc1C(=O)O	inactive
CON(C)C(=O)Nc1ccc(Cl)c(Cl)c1	inactive
OCCN(CCO)CCO	inactive
CC(C)C1(C)N=C(c2nc3ccccc3cc2C(=O)O)NC1=O (configuration not stated)	inactive
CCC12COCN1COC2	inactive
O=c1ccc(=O)[nH][nH]1	inactive
CC(C)OC(=O)Nc1ccccc1	inactive
Cc1ccc(N)cc1Cl	inactive
ClCCBr	inactive
Nc1ccc(Cc2ccc(N)cc2)cc1	inactive
CNC(=O)Oc1ccccc1OC(C)C	inactive
CCCC1COC(Cn2cncn2)(c2ccc(Cl)cc2Cl)O1 (configuration not stated)	inactive
Nc1ccc(Br)cc1	inactive
CN(C)CCO	inactive
COc1ccc2c3c1O[C@H]1[C@@H](O)C=C[C@H]4[C@@H](C2)N(C)CC[C@@]341	inactive
COC(=O)c1ccccc1N	inactive
O=NN1CCCC1	inactive
O=c1n(Cl)c(=O)n(Cl)c(=O)n1Cl	inactive
CC1C=[C-]C=C1.[C-]#[O+].[C-]#[O+].[C-]#[O+].[Mn]	inactive
CCCCCCCCCl	inactive
COCCl	inactive
COP(N)(=O)SC (configuration not stated)	inactive
C#CC(C)(C)NC(=O)c1cc(Cl)cc(Cl)c1	inactive
C=C(C)CCl	inactive
Cc1ccc([N+](=O)[O-])cc1C	inactive
CN1C(=O)CN=C(c2ccccc2)c2cc(Cl)ccc21	inactive
CCOP(=S)(OCC)SCCSCC	inactive
CN(C)N=O	inactive
COC(=O)NS(=O)(=O)c1ccc(N)cc1	inactive
CCCCN(CCCC)SN(C)C(=O)Oc1cccc2c1OC(C)(C)C2	inactive
CC(C)(C)OOC(C)(C)C	inactive

----------
# SYSTEM_UNDER_TEST: Peroxisome proliferator-activated receptor gamma (Homo sapiens)
# ASSAY_INFO: qHTS assay to identify small molecule agonists of the peroxisome proliferator-activated receptor gamma (PPARg) signaling pathway (AID 743094)
# MEASUREMENT_CONTEXT: HEK293H PPARg-UAS-bla, beta-lactamase FRET ratio, 17 h; series mostly up to 57 µM
Records with an inconclusive call do not appear. Activity calls are given as the source filed them. Calls come from the whole dose curve; as a rule, active = well fitted activation curve with a large enough effect in the signal ratio in the repeat runs (not every such curve was filed as active); inconclusive = weak or mixed curves, or effect the other way; inactive = no such curve, though single readings can be large or run the other way; the % refers to the signal ratio.

MOLECULE	SYSTEM_UNDER_TEST	outcome
Clc1ccccc1Cl	Peroxisome proliferator-activated receptor gamma (Homo sapiens)	inactive
CCC[CH2][Sn]([Cl])([Cl])[Cl]	Peroxisome proliferator-activated receptor gamma (Homo sapiens)	inactive
CCC[N+](=O)[O-]	Peroxisome proliferator-activated receptor gamma (Homo sapiens)	inactive
Oc1ccccc1Cl	Peroxisome proliferator-activated receptor gamma (Homo sapiens)	inactive
ClCCBr	Peroxisome proliferator-activated receptor gamma (Homo sapiens)	inactive
CCN(CC)CCO	Peroxisome proliferator-activated receptor gamma (Homo sapiens)	inactive
C1CC2OC2CC1C1CO1 (stereo not given)	Peroxisome proliferator-activated receptor gamma (Homo sapiens)	inactive
CCOP(=S)(OCC)SCCSCC	Peroxisome proliferator-activated receptor gamma (Homo sapiens)	inactive
COCCl	Peroxisome proliferator-activated receptor gamma (Homo sapiens)	inactive
c1ccc(OP(Oc2ccccc2)Oc2ccccc2)cc1	Peroxisome proliferator-activated receptor gamma (Homo sapiens)	inactive
COc1ccc2c3c1O[C@H]1[C@@H](O)C=C[C@H]4[C@@H](C2)N(C)CC[C@@]341	Peroxisome proliferator-activated receptor gamma (Homo sapiens)	inactive
O=Cc1cccc(Oc2ccccc2)c1	Peroxisome proliferator-activated receptor gamma (Homo sapiens)	inactive
Cc1ccccc1O	Peroxisome proliferator-activated receptor gamma (Homo sapiens)	inactive
Cn1cc(-c2ccccc2)c(=O)c(-c2cccc(C(F)(F)F)c2)c1	Peroxisome proliferator-activated receptor gamma (Homo sapiens)	inactive
CCC12COCN1COC2	Peroxisome proliferator-activated receptor gamma (Homo sapiens)	inactive
CN(C)N=O	Peroxisome proliferator-activated receptor gamma (Homo sapiens)	inactive
[N-]=[N+]=[N-]	Peroxisome proliferator-activated receptor gamma (Homo sapiens)	inactive
O=[N+]([O-])c1ccccc1	Peroxisome proliferator-activated receptor gamma (Homo sapiens)	inactive
O=c1[nH]c(=O)[nH]c(=O)[nH]1	Peroxisome proliferator-activated receptor gamma (Homo sapiens)	inactive
CN(C)CCO	Peroxisome proliferator-activated receptor gamma (Homo sapiens)	inactive

----------
# ASSAY_INFO: qHTS assay to identify small molecule antagonists of the retinoid-related orphan receptor gamma (ROR-gamma) signaling pathway - cell viability counter screen (AID 1159520); also: nearly all actives have a fitted effect of over 50% in size
# MEASUREMENT_CONTEXT: Tet-on RORgamma CHO cells viability, ATP luminescence, 16 h; series mostly up to 92.4 µM
Records with an inconclusive call do not appear. Active and inactive are the calls of the source. Calls follow the shape of the dose curve; as a rule, active = well fitted cell-killing curve with a large enough effect in the repeat runs; inconclusive = weak or mixed curves, or effect the other way; inactive = no such curve, though single readings can be large or run the other way.
Classes used: active, inactive

MOLECULAR_STRING	CAT
CCOC(=O)c1ccccc1C(=O)OCC	inactive
CCC(C)(CC)c1cc(NC(=O)c2c(OC)cccc2OC)on1	inactive
c1ccc2c(c1)Oc1ccccc1O2	inactive
O=Cc1cccc(Oc2ccccc2)c1	inactive
CCCN(CCC)N=O	inactive
c1ccc2c(c1)oc1ccccc12	inactive
O=C(O)c1ccccn1	inactive
CCN(CC)CCO	inactive
CCCCN(CCCC)SN(C)C(=O)Oc1cccc2c1OC(C)(C)C2	active
O=c1[nH]c(=O)[nH]c(=O)[nH]1	inactive
CCOP(=S)(OCC)Oc1cnc2ccccc2n1	inactive
Cc1ccc(N)cc1Cl	inactive
